// provenance: ChEMBL document CHEMBL6103592

Test system: HepG2
Test Summary: Cytotoxicity against human HepG2 cells assessed as cell viability incubated for 24 hrs by CCK-8 assay
Format: functional, cell-based
Condition Set: HepG2, 24 h
Endpoint Name: IC50

Query C=C[C@]1(C)C[C@@H](OC(=O)CSc2nc(OC(=O)c3ccc(C(C)(C)C)cc3)cs2)[C@]2(C)[C@H](C)CC[C@]3(CCC(=O)[C@H]32)[C@@H](C)[C@@H]1O yields IC50 of > 200 µM

====

I'd be grateful if you could share measured MIC for these entries.
System: Mycoplasma
Test Summary: Antibacterial activity against Mycoplasma F3 assessed as inhibition of visible bacterial growth incubated for 24 hrs by CLSI based broth microdilution method
Type: functional
// note: answer is a bare numeric in µg/mL

Reported MIC of C=C[C@]1(C)C[C@@H](OC(=O)CSc2nc(OC(=O)c3ccccc3C)cs2)[C@]2(C)[C@H](C)CC[C@]3(CCC(=O)[C@H]32)[C@@H](C)[C@@H]1O : 1

Measured MIC of C=C[C@]1(C)C[C@@H](OC(=O)CSc2nc(OC(=O)c3ccccc3F)cs2)[C@]2(C)[C@H](C)CC[C@]3(CCC(=O)[C@H]32)[C@@H](C)[C@@H]1O : 0.25

The reported MIC of the compound C=C[C@]1(C)C[C@@H](OC(=O)CSc2nc(OC(=O)CCCCCCC)cs2)[C@]2(C)[C@H](C)CC[C@]3(CCC(=O)[C@H]32)[C@@H](C)[C@@H]1O was 0.5

MIC in this record for C=C[C@]1(C)C[C@@H](OC(=O)CSc2nc(OC(=O)C(CC)CCCC)cs2)[C@]2(C)[C@H](C)CC[C@]3(CCC(=O)[C@H]32)[C@@H](C)[C@@H]1O (stereo partly specified) : 0.5

Memo: C=C[C@]1(C)C[C@@H](OC(=O)CSc2nc(OC(=O)CCC)cs2)[C@]2(C)[C@H](C)CC[C@]3(CCC(=O)[C@H]32)[C@@H](C)[C@@H]1O , reported MIC: 0.25

The reported value for C=C[C@]1(C)C[C@@H](OC(=O)CSc2nc(OC(=O)c3ccccc3)cs2)[C@]2(C)[C@H](C)CC[C@]3(CCC(=O)[C@H]32)[C@@H](C)[C@@H]1O in terms of MIC is 0.25

Note to self: MIC recorded for C=C[C@]1(C)C[C@@H](OC(=O)CSc2nc(OC(=O)c3ccc(Cl)cc3Cl)cs2)[C@]2(C)[C@H](C)CC[C@]3(CCC(=O)[C@H]32)[C@@H](C)[C@@H]1O was 0.5

For record C=C[C@]1(C)C[C@@H](OC(=O)CSc2nc(OC(=O)c3ccccc3Br)cs2)[C@]2(C)[C@H](C)CC[C@]3(CCC(=O)[C@H]32)[C@@H](C)[C@@H]1O the listed MIC is 0.5

Kindly note the recorded MIC for C=C[C@]1(C)C[C@@H](OC(=O)CSc2nc(OC(=O)C3CCCCC3)cs2)[C@]2(C)[C@H](C)CC[C@]3(CCC(=O)[C@H]32)[C@@H](C)[C@@H]1O , which is 0.5

Entry C=C[C@]1(C)C[C@@H](OC(=O)CSc2nc(OC(=O)CC(C)C)cs2)[C@]2(C)[C@H](C)CC[C@]3(CCC(=O)[C@H]32)[C@@H](C)[C@@H]1O , MIC reported as 0.125

The compound identified as C=C[C@]1(C)C[C@@H](OC(=O)CSc2nc(OC(=O)c3cccc(F)c3)cs2)[C@]2(C)[C@H](C)CC[C@]3(CCC(=O)[C@H]32)[C@@H](C)[C@@H]1O registered its MIC at 0.5
